Reported ΔR/DRAΔ2 POA values for a set of molecules
- Assay notes: Probe fluorescence ratio response to palmitoleic acid relative to ADIFAB2
- Format: binding
- Condition summary: Table 5
Answer as a number with no unit attached.

Reference set, count: 3
{"Molecule": "L2P11B4: FABP probe, substitutions M18V G31A A73W vs SEQ ID NO: 2 (protein, listed as Rattus norvegicus, PEPTIDE (1)...(131) wild-type rat intestinal fatty acid binding protein) AFDGTWKVDRNENYEKFVEKMGINVVKRKLAAHDNLKLTITQEGNKFTVKESSNFRNIDVVFELGVDFAYSLWDGTELTGTWTMEGNKLVGKFKRVDNGKELIAVREISGNELIQTYTYEGVEAKRIFKKE", "ΔR/DRAΔ2 POA": 3.1}
{"Molecule": "L2P8A6: FABP probe, substitutions M18I G31V F55V A73V vs SEQ ID NO: 2 (protein, listed as Rattus norvegicus, PEPTIDE (1)...(131) wild-type rat intestinal fatty acid binding protein) AFDGTWKVDRNENYEKFIEKMGINVVKRKLVAHDNLKLTITQEGNKFTVKESSNVRNIDVVFELGVDFAYSLVDGTELTGTWTMEGNKLVGKFKRVDNGKELIAVREISGNELIQTYTYEGVEAKRIFKKE", "ΔR/DRAΔ2 POA": 1.3}
{"Molecule": "L2P8F11: FABP probe, substitution A73I vs SEQ ID NO: 2 (protein, listed as Rattus norvegicus, PEPTIDE (1)...(131) wild-type rat intestinal fatty acid binding protein) AFDGTWKVDRNENYEKFMEKMGINVVKRKLGAHDNLKLTITQEGNKFTVKESSNFRNIDVVFELGVDFAYSLIDGTELTGTWTMEGNKLVGKFKRVDNGKELIAVREISGNELIQTYTYEGVEAKRIFKKE", "ΔR/DRAΔ2 POA": 0.1}

q: Would you mind telling me what ΔR/DRAΔ2 POA value was observed for L2P12C5: FABP probe, substitutions M18I G31I F55M A73I vs SEQ ID NO: 2 (protein, listed as Rattus norvegicus, PEPTIDE (1)...(131) wild-type rat intestinal fatty acid binding protein) AFDGTWKVDRNENYEKFIEKMGINVVKRKLIAHDNLKLTITQEGNKFTVKESSNMRNIDVVFELGVDFAYSLIDGTELTGTWTMEGNKLVGKFKRVDNGKELIAVREISGNELIQTYTYEGVEAKRIFKKE ?
a: 1.9
